- procedure.summary: Preformulation study: solubility of dolutegravir sodium in water
- Format: physicochemical
- condition.set: preformulation studies
readout.type: solubility
Phrase the answer as number then unit, nothing more needed.

Consider the compound C[C@@H]1CCO[C@H]2Cn3cc(C(=O)NCc4ccc(F)cc4F)c(=O)c(O)c3C(=O)N12 [PD] . State its measured solubility. 1.6 µg/mL
